SYSTEM_UNDER_TEST: recombinant homotrimeric HA, A/Hong Kong/2108/03 H9N2 (Influenza A virus A/Hong Kong/2108/03 (H9N2))
PROTOCOL_DETAILS: trimeric HA microarray, transfection set 3
ASSAY_SETUP: remark: other sources report otherwise
MEASUREMENT_TYPE: Trimeric HA Binding RLU (RLU)
Numbers only, in RLU.

- BINDER: "TCN-523 (5248_A17) (antibody, V domains shown) VH: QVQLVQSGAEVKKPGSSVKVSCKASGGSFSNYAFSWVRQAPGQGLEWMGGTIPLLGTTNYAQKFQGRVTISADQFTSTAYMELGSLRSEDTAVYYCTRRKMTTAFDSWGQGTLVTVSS VL: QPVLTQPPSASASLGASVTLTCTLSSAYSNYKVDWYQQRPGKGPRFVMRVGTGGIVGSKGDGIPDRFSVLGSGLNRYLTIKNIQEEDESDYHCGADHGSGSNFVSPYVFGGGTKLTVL"
  MEASUREMENT_UNIT: "RLU"
  Trimeric HA Binding RLU: 51
- BINDER: "TCN-504 (3251_K17) (antibody, V domains shown) VH: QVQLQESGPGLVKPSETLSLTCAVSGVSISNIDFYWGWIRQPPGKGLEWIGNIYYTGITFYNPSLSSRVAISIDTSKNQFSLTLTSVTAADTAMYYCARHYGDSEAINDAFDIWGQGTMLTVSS VL: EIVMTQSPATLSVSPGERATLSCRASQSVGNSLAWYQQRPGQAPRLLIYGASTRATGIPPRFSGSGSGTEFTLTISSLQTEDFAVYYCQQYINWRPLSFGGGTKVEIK"
  MEASUREMENT_UNIT: "RLU"
  Trimeric HA Binding RLU: 36

Dear colleague, could you send me Trimeric HA Binding RLU for each of the items below? Thanks.
1. TCN-530 (5248_H10a) (antibody, V domains shown) VH: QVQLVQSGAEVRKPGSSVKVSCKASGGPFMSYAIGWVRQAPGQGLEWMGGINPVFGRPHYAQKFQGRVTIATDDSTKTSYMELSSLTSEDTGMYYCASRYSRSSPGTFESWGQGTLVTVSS VL: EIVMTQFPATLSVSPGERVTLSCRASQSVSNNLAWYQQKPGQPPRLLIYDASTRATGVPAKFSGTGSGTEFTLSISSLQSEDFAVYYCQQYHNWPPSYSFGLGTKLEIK
2. TCN-533 (5256_A17) (antibody, V domains shown) VH: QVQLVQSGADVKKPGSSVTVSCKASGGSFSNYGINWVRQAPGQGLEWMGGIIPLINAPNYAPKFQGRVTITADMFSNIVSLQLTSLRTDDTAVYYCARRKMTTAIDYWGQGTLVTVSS VL: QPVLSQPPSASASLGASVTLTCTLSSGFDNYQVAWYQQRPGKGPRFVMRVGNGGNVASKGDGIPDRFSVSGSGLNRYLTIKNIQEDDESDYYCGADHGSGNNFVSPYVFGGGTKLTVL

Result block:
1. 44
2. 33
